system: Vero E6 infected with SARS-CoV-2; experiment: morphology score (similarity to uninfected cells); higher = more like uninfected cells; conditions: 24 h
In this section we review reported morphology score values for a set of molecules.
Quantity kind: morphology score

[[record]]
molecule = "C[N+](C)(C)NCCC(=O)O [meldonium] (10 µM)"
reported_measurement = 0.253

[[record]]
molecule = "COc1cc(O)c2c(c1)C(=O)c1cc(C)cc(O)c1C2=O [rheochrysidin] (10 µM)"
reported_measurement = 0.119

[[record]]
molecule = "O=C(c1ccc2nccnc2c1)N1CCCCC1 [ampalex] (10 µM)"
reported_measurement = -0.0456

[[record]]
molecule = "Cc1c(C)c2c(c(C)c1O)CCC(C)(COc1ccc(CC3SC(=O)NC3=O)cc1)O2 (stereo not drawn) [troglitazone] (10 µM)"
reported_measurement = 0.342

[[record]]
molecule = "CNCc1ccc(C)c(NC(=O)c2ccc(Nc3nc(-c4ccccc4)c4ccccc4n3)cc2)c1 (0.833333 µM)"
reported_measurement = 0.213

[[record]]
molecule = "CCCCOc1c(C(=O)c2c(F)cc(C)cc2F)c[nH]c2nncc1-2 (10 µM)"
reported_measurement = 0.383

[[record]]
molecule = "Cc1cccc(NC(=O)c2ccc(C(F)(F)F)cc2C(=O)O)n1 (10 µM)"
reported_measurement = -0.208

[[record]]
molecule = "Cc1[nH]nc(C(F)(F)F)c1Cc1sc2c(c1C(=O)N1C[C@](C)(O)CO1)c(=O)n(C)c(=O)n2C(C)C (10 µM)"
reported_measurement = 0.0405

[[record]]
molecule = "OCc1ccc(CO)o1 [2,5-furandimethanol] (10 µM)"
reported_measurement = 0.0908

[[record]]
molecule = "C[C@H](Oc1cc(-c2cnn(C3CCNCC3)c2)cnc1N)c1c(Cl)ccc(F)c1Cl [crizotinib-(S)] (0.833333 µM)"
reported_measurement = 0.602

[[record]]
molecule = "O=C(O)C[C@H]1CC[C@H](c2ccc(-c3ccc(Nc4ccc(C(F)(F)F)nc4)cn3)cc2)CC1 (10 µM)"
reported_measurement = 0.27

[[record]]
molecule = "CC(=O)O[C@]1(C(C)=O)CC[C@H]2[C@@H]3C=C(C)C4=CC(=O)CC[C@@H]4[C@H]3CC[C@@]21C [nomegestrol-acetate] (10 µM)"
reported_measurement = 0.147

[[record]]
molecule = "CN(C)CCc1ccc(O)cc1 [hordenine] (10 µM)"
reported_measurement = 0.163

[[record]]
molecule = "O=C(O)C[C@H]1CC[C@H](c2ccc(NC(=O)c3nnc(Nc4ccc(F)c(F)c4)o3)cc2)CC1 (10 µM)"
reported_measurement = 0.115

[[record]]
molecule = "O=C1CN2Cc3c(ccc(Cl)c3Cl)N=C2N1 [anagrelide] (10 µM)"
reported_measurement = 0.142

[[record]]
molecule = "CC(C)Cn1cnc2c1c(=O)n(C)c(=O)n2C [isbufylline] (10 µM)"
reported_measurement = -0.0146

[[record]]
molecule = "C[C@]12CC[C@H](O)CC1=CC[C@@H]1[C@@H]2CC[C@]2(C)C(c3cccnc3)=CC[C@@H]12 [Abiraterone (CB-7598)] (10 µM)"
reported_measurement = -0.0295

[[record]]
molecule = "CCC(CC)O[C@@H]1C=C(C(=O)O)C[C@H](N)[C@H]1NC(C)=O [oseltamivir-carboxylate] (10 µM)"
reported_measurement = -0.0548

[[record]]
molecule = "CCOC(=O)[C@@](C)(N)Cc1ccc(O)c(O)c1 [methyldopate] (10 µM)"
reported_measurement = 0.0423

[[record]]
molecule = "CN1CCc2cc(Cl)c(O)cc2[C@@H](c2ccccc2)C1 (10 µM)"
reported_measurement = 0.0172

[[record]]
molecule = "CCN1C[C@]2(COC(=O)c3ccccc3N3C(=O)C[C@H](C)C3=O)CC[C@H](OC)[C@@]34[C@@H]5C[C@H]6[C@H](OC)[C@@H]5[C@](O)(C[C@@H]6OC)[C@](O)([C@@H](OC)[C@H]23)[C@@H]14 [methyllycaconitine] (10 µM)"
reported_measurement = 0.00671

[[record]]
molecule = "CC(CN(C)C)C(C)(O)Cc1ccc(Cl)cc1 (stereo not drawn) [clobutinol] (10 µM)"
reported_measurement = 0.00198

[[record]]
molecule = "Cc1c(-c2ccccc2)oc2c(C(=O)OCCN3CCCCC3)cccc2c1=O [flavoxate] (10 µM)"
reported_measurement = 0.4

[[record]]
molecule = "Cc1c(C(=O)NCCCO)cnn1-c1nc(-c2cccc(C(F)(F)F)c2)cs1 (10 µM)"
reported_measurement = 0.107

[[record]]
molecule = "COc1cc2nccc(Oc3ccc(NC(=O)NC4CC4)c(Cl)c3)c2cc1C(N)=O [lenvatinib] (10 µM)"
reported_measurement = 0.239

[[record]]
molecule = "CC(C)(C)C#Cc1cc(N(C(=O)[C@H]2CC[C@H](C)CC2)[C@H]2CC[C@@H](O)CC2)c(C(=O)O)s1 (10 µM)"
reported_measurement = -0.117

[[record]]
molecule = "COc1cc(-c2cc(-c3cccc(O)c3)cnc2N)cc(OC)c1OC (10 µM)"
reported_measurement = 0.51

[[record]]
molecule = "Cc1ccc2c(c1)C1(CCN(CCc3nc(-c4ccccc4)oc3C)CC1)OC(=O)N2 (0.833333 µM)"
reported_measurement = 0.0199

[[record]]
molecule = "COc1ccc2cccc(CCNC(C)=O)c2c1 [agomelatine] (10 µM)"
reported_measurement = 0.11

[[record]]
molecule = "CC(C)(N)c1cc(C(=O)N[C@@H]2CCc3ccc(Oc4ccnc5c4CCC(=O)N5)cc3C2)cc(C(F)(F)F)c1 (0.833333 µM)"
reported_measurement = 0.227

[[record]]
molecule = "O=C(/C=C/c1ccc2ccc(C(F)(F)F)cc2n1)c1ccncc1 (10 µM)"
reported_measurement = 0.389

[[record]]
molecule = "CN(CCOc1ccc(-c2ccc3c(c2)OCO3)cc1C(C)(C)C)CC(=O)O (10 µM)"
reported_measurement = -0.0713

[[record]]
molecule = "CCOCc1cc(OC)c(-c2ccc(C[C@H](NC(=O)c3c(F)cccc3F)C(=O)O)cc2)c(OC)c1 [firategrast] (10 µM)"
reported_measurement = -0.05


----------
In this section we review reported inhibition of SARS-CoV-2 cytopathic effect values for a set of molecules.
system: Vero E6 infected with SARS-CoV-2; assay: inhibition of SARS-CoV-2 cytopathic effect; higher = more antiviral protection, active = above 15; conditions: 1 nM; 48 h
Quantity kind: inhibition of SARS-CoV-2 cytopathic effect

[[record]]
molecule = "Nc1cccc(-c2cc3c(Oc4cccc(O)c4)ncnc3[nH]2)c1"
measured_on = "Vero E6 infected with SARS-CoV-2"
reported_measurement = "4.09% (inactive)"

[[record]]
molecule = "CN1CC(O)C2=C/C(=N/NC(N)=O)C(=O)C=C21 (stereo unspecified) [carbazochrome]"
measured_on = "Vero E6 infected with SARS-CoV-2"
reported_measurement = "2.27% (inactive)"

[[record]]
molecule = "CCCCCOc1ccc(-c2ccc(-c3ccc(C(=O)N[C@H]4C[C@@H](O)[C@@H](O)NC(=O)[C@@H]5[C@@H](O)[C@@H](C)CN5C(=O)[C@H]([C@@H](C)O)NC(=O)[C@H]([C@H](O)[C@@H](O)c5ccc(O)cc5)NC(=O)[C@@H]5C[C@@H](O)CN5C(=O)[C@H]([C@@H](C)O)NC4=O)cc3)cc2)cc1 [anidulafungin]"
measured_on = "Vero E6 infected with SARS-CoV-2"
reported_measurement = "-3.73% (inactive)"

[[record]]
molecule = "CCS(=O)(=O)N1CCC([C@@H](C)n2c(C)c(C(=O)NCc3c(OC)cc(C)[nH]c3=O)c3ccccc32)CC1"
measured_on = "Vero E6 infected with SARS-CoV-2"
reported_measurement = "0.38% (inactive)"

[[record]]
molecule = "CC(C)NCC(O)c1ccc2ccccc2c1 (stereo unspecified) [pronethalol]"
measured_on = "Vero E6 infected with SARS-CoV-2"
reported_measurement = "0.73% (inactive)"

[[record]]
molecule = "COc1ccc(Cc2nccc3cc(OC)c(OC)cc23)cc1OC [papaverine]"
measured_on = "Vero E6 infected with SARS-CoV-2"
reported_measurement = "-0.41% (inactive)"

[[record]]
molecule = "CNc1ncc2cc(-c3cc(NC(=O)NCCC(C)(C)C)c(F)cc3C)c(C)nc2n1"
measured_on = "Vero E6 infected with SARS-CoV-2"
reported_measurement = "0.87% (inactive)"

[[record]]
molecule = "O=C(CN1CCN(C(=O)c2ccco2)CC1)Nc1cc(C(F)(F)F)ccc1Cl"
measured_on = "Vero E6 infected with SARS-CoV-2"
reported_measurement = "0.23% (inactive)"

[[record]]
molecule = "COc1cc2c(cc1OC(C)C)[C@H](c1ccc(Cl)cc1)N(c1ccc(N(C)C[C@H]3CC[C@H](N4CCN(C)C(=O)C4)CC3)cc1)C(=O)C2"
measured_on = "Vero E6 infected with SARS-CoV-2"
reported_measurement = "-0.21% (inactive)"

[[record]]
molecule = "COC(=O)C1=C(C)NC(C)=C(C(=O)OC)C1c1ccccc1[N+](=O)[O-] [nifedipine]"
measured_on = "Vero E6 infected with SARS-CoV-2"
reported_measurement = "-0.99% (inactive)"

[[record]]
molecule = "Cc1cc2c(C(C)C)c(O)c(O)c(C=O)c2c(O)c1-c1c(C)cc2c(C(C)C)c(O)c(O)c(C=O)c2c1O [gossypol]"
measured_on = "Vero E6 infected with SARS-CoV-2"
reported_measurement = "-0.82% (inactive)"

[[record]]
molecule = "O[C@@H](CN1CCNCC1)Cn1c2ccc(Br)cc2c2cc(Br)ccc21 [BAX-channel-blocker]"
measured_on = "Vero E6 infected with SARS-CoV-2"
reported_measurement = "10.2% (inactive)"

[[record]]
molecule = "CC(C)(O)CNc1nc(Nc2ccnc(C(F)(F)F)c2)nc(-c2cccc(C(F)(F)F)n2)n1 [enasidenib]"
measured_on = "Vero E6 infected with SARS-CoV-2"
reported_measurement = "-2.39% (inactive)"

[[record]]
molecule = "O=C(CCCCCCNC(=O)c1cnc(N(c2ccccc2)c2ccccc2)nc1)NO"
measured_on = "Vero E6 infected with SARS-CoV-2"
reported_measurement = "-0.34% (inactive)"

[[record]]
molecule = "CC(C)Oc1ccc(-c2nn([C@@H](C)c3oc4ccc(F)cc4c(=O)c3-c3cccc(F)c3)c3ncnc(N)c23)cc1F"
measured_on = "Vero E6 infected with SARS-CoV-2"
reported_measurement = "1.54% (inactive)"

[[record]]
molecule = "COc1ccc(Cc2cnc(N)nc2N)cc1OC [diaveridine]"
measured_on = "Vero E6 infected with SARS-CoV-2"
reported_measurement = "-0.02% (inactive)"

